# tested-system: T1, Bbc1, P47068
# T1 sequence (P47068 1-78, looked up): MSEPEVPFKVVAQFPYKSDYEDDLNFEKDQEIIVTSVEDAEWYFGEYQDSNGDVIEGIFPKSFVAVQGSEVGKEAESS
# measurement-notes: SPOT array
# assay-conditions: median of control spots 796
property-measured: SPOT intensity
Could you respond with only the numeric value?

Asked: Identify measured SPOT intensity associated with RRSKSLPTTPGIRSG
Given back: 19

Asked: Identify measured SPOT intensity associated with KDKKTKPTPPPKPSH
Given back: 0

Asked: Answer with the recorded SPOT intensity of TPEIPPPLPPKIMVH only.
Given back: 0

Asked: Supply reported SPOT intensity belonging to this binder: PSRRDSLSIPRAVDA
Given back: 0

Asked: Could you please provide reported SPOT intensity for LYKRKPILLPDPKPL ? Thanks!
Given back: 2
